- test: Pharmacokinetic profile / in vivo conversion after oral administration to SCID mice (plasma, LC-MS/MS)
- Parameters: species or system female SCID mice
- run_conditions: female, mouse, po, Drug from Example 25 administered 3 mg/kg p.o., lipid formulation (PEG 300/ethanol/Phosal 50PG 30/10/60), read-out: AUCt, compound measured: Drug from Example 25

- smiles_structure: "Cc1c(N(C(=O)c2cc(-c3cc(F)ccc3C(=O)N3Cc4ccccc4C[C@H]3CN3CCOCC3)n(C)c2C)c2ccc(O)cc2)cc(C#N)n1C"
  AUC(0-t) [ng·h/mL]: 37

---

- test: In vitro test on human Caco-2 cells, cellular transport A to B
- Type: in vitro ADME
- run_conditions: human, Caco-2, drug incubated and measured, A to B, 1 or 3 μM, read-out: Papp, the drug after incubation of the drug
Catalogue of Papp A→B at 120 min values
property_label: Papp A→B at 120 min (×10⁻⁶ cm/s)

- smiles_structure: "Cc1c(N(C(=O)c2cc(-c3cc(F)ccc3C(=O)N3Cc4ccccc4C[C@H]3CN3CCOCC3)n(C)c2C)c2ccc(O)cc2)cc(C#N)n1C"
  readout_number: 0.49
- smiles_structure: "Cc1c(N(C(=O)c2cc(-c3cc(Cl)ccc3C(=O)N3Cc4ccccc4C[C@H]3CN3CCOCC3)n(C)c2C)c2ccc(O)cc2)cc(C#N)n1C"
  readout_number: 0.29
- smiles_structure: "C[C@@H]1Cc2ccccc2CN1C(=O)c1cc2c(cc1-c1cc(C(=O)N(c3ccc(O)cc3)c3cnc4c(ccn4C)c3)c3ccccn13)OCO2"
  readout_number: 0.21
